test target: T1, human Claudin18.2 (human)
T1 construct: also called CLDN18.2
procedure text: cell ELISA, Claudin18.2-expressing HEK293T cells
pEC50: −log10 of the molar value.
reported metric: pEC50

INSERT INTO assay_data (binder, result) VALUES
  ('271B1B6 (antibody, V domains shown, mouse hybridoma mAb) VH: QAYLQQSGAELVRSGASVKMSCKASGYTFTNYNIHWVKQTPGQGLEWIGYIYPGNGGNYYNQKFKGKATLTADTSSITAYMQISSLTSEDSAVYFCARDYYGNSFAYWGQGTLVTVSA VL: DIVMTQSPSSLTVTAGEKVTMNCKSSQSLLNSGNQKNYLTWYQQKPGQPPKLLIYWASTRESGVPDRFTGSGSGTDFTLTISSVQAEDLAIYYCQNDYYYPLTFGAGTKLELK', '~9.37'),
  ('243B4F7 (antibody, V domains shown, mouse hybridoma mAb) VH: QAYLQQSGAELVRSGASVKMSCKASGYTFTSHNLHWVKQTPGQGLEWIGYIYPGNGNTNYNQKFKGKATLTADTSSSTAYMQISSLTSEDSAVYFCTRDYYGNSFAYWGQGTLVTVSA VL: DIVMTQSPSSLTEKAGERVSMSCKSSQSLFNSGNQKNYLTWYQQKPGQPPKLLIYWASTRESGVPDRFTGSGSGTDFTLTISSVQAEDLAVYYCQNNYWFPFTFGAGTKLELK', '~9.39'),
  ('275B2G2 (antibody, V domains shown, mouse hybridoma mAb) VH: EVMLVESGGGLVKPGGSLKLSCAASGFTFRDYTMSWVRQTPEKRLEWVATSIIGGTYTYYPDSVKGRFTISRDNVKNTLYLQMSSLRSEDTAMYYCSRLGRGNAMDYWGQGTSVTVSS VL: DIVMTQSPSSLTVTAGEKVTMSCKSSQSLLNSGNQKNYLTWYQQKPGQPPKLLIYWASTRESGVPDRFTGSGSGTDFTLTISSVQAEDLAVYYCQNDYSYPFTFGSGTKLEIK', '~8.69');
